TESTED_TARGET: Cytochrome P450 11B1, mitochondrial (Homo sapiens, UniProt P15538)
ASSAY_METHOD_TEXT: Inhibition of human CYP11B1 expressed in hamster fibroblasts using deoxycorticosterone as substrate
READOUT_KIND: IC50 (µM)

[
  {
    "ITEM_SMILES": "CCC(=O)N1CCc2cc(-c3cccnc3)ccc21",
    "READOUT_KIND": "IC50",
    "UNIT_OF_MEASURE": "µM",
    "RESULT_NUMBER": 4.74
  }
]

###

Organism: Homo sapiens
ASSAY_METHOD_TEXT: Selectivity index, ratio of IC50 for CYP11B1 (unknown origin) to ratio of IC50 for CYP11B2 (unknown origin)
READOUT_KIND: Ratio IC50

[
  {
    "ITEM_SMILES": "Fc1cc2c(cc1-c1cccnc1)CCc1nncn1-2",
    "RESULT_NUMBER": 32
  },
  {
    "ITEM_SMILES": "Cc1nnc2n1-c1cc(F)c(-c3cccnc3)cc1CC2",
    "RESULT_NUMBER": 96
  },
  {
    "ITEM_SMILES": "Cc1nnc2n1-c1c(F)cc(-c3cccnc3)cc1CC2",
    "RESULT_NUMBER": 272
  },
  {
    "ITEM_SMILES": "Fc1cc(-c2cccnc2)cc2c1-n1cnnc1CC2",
    "RESULT_NUMBER": 94
  }
]

###

TESTED_TARGET: Cytochrome P450 11B2, mitochondrial (Homo sapiens, UniProt P19099)
Sequence (P19099 whole entry): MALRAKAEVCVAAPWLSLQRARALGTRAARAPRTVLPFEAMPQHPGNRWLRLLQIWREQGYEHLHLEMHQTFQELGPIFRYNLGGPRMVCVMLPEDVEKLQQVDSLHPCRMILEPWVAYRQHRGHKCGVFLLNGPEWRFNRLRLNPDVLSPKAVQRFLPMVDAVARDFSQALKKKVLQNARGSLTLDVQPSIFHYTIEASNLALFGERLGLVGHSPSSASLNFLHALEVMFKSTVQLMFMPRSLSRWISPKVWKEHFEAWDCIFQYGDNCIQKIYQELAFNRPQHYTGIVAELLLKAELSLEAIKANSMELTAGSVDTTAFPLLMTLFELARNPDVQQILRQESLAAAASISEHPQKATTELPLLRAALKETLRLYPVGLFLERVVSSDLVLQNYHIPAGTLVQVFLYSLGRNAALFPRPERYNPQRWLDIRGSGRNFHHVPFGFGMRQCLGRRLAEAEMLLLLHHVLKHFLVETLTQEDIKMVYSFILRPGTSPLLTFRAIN
ASSAY_METHOD_TEXT: Inhibition of human CYP11B2 expressed in hamster fibroblasts using deoxycorticosterone as substrate
pIC50: −log10 of the molar value.

[
  {
    "ITEM_SMILES": "CCC(=O)N1CCc2cc(-c3cccnc3)ccc21",
    "pIC50": 6.64
  }
]

###

TESTED_TARGET: CYP11B1 (Homo sapiens, UniProt P15538)
Sequence (P15538 whole entry): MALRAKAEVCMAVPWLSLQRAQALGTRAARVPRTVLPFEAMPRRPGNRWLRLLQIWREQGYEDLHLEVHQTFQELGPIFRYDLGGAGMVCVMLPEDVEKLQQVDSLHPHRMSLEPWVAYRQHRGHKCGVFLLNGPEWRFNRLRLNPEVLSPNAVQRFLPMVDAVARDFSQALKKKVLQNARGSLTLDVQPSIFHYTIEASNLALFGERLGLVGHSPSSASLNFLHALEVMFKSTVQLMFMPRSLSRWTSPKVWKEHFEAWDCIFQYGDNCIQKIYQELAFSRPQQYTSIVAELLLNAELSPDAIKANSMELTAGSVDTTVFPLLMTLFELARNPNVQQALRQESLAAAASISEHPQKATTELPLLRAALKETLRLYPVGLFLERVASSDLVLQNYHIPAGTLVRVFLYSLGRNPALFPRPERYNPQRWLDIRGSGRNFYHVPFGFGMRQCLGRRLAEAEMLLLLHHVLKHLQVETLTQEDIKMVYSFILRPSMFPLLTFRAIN
ASSAY_METHOD_TEXT: Inhibition of CYP11B1 (unknown origin)

[
  {
    "ITEM_SMILES": "Fc1cc(-c2cccnc2)cc2c1-n1cnnc1CC2",
    "UNIT_OF_MEASURE": "µM",
    "IC50": 16.1
  },
  {
    "ITEM_SMILES": "Cc1nnc2n1-c1cc(F)c(-c3cccnc3)cc1CC2",
    "UNIT_OF_MEASURE": "µM",
    "IC50": 12.6
  },
  {
    "ITEM_SMILES": "Cc1nnc2n1-c1c(F)cc(-c3cccnc3)cc1CC2",
    "UNIT_OF_MEASURE": "µM",
    "IC50": 17
  },
  {
    "ITEM_SMILES": "Fc1cc2c(cc1-c1cccnc1)CCc1nncn1-2",
    "UNIT_OF_MEASURE": "µM",
    "IC50": 7.9
  }
]

###

Tested on: Candida albicans
ASSAY_METHOD_TEXT: Antifungal activity against Candida albicans
Format: functional

[
  {
    "COMPOUND": "CC(=O)N1CCN(c2ccc(OCC3COC(Cn4ccnc4)(c4ccc(Cl)cc4Cl)O3)cc2)CC1 (stereo not given) [KETOCONAZOLE]",
    "MIC90 / mg/L": 0.25
  },
  {
    "COMPOUND": "Clc1ccc(COC(Cn2ccnc2)c2ccc(Cl)cc2Cl)cc1 (stereo not given) [ECONAZOLE]",
    "MIC90 / mg/L": 2
  },
  {
    "COMPOUND": "Clc1ccccc1C(c1ccccc1)(c1ccccc1)n1ccnc1 [CLOTRIMAZOLE]",
    "MIC90 / mg/L": 1
  },
  {
    "COMPOUND": "Clc1ccc(COC(Cn2ccnc2)c2ccc(Cl)cc2Cl)c(Cl)c1 (stereo not given) [MICONAZOLE]",
    "MIC90 / mg/L": 0.5
  },
  {
    "COMPOUND": "OC(Cn1cncn1)(Cn1cncn1)c1ccc(F)cc1F [FLUCONAZOLE]",
    "MIC90 / mg/L": 1
  }
]
